Tested target: T1, CKKAA immunoglobulin binding domain of SpAKKAA (Staphylococcus aureus, UniProt A0A0H3K686 214-323)
T1 construct: the construct is said to span residues 234-291 of mature SpA and its limits may differ from the entry; not shown: N-terminal six histidyl tag (pET15b)
Procedure details: ELISA, antigen-coated plate, mAb titrated
Observed property: Ka (M⁻¹)
Give your result in M⁻¹ as a bare value.

Field: example entries. Status: answers known.
* mAb 6D11 (antibody, V domains shown, Mouse IgG2a hybridoma mAb) VH: QVQLQQSGAELVRPGTSVKVSCKASGNAFTNYLIEWIKQRPGQGLEWIGVINPGSGITNYNEKFKGKATLTADKSSNTAYMQLSSLSSDDSAVYFCSGSANWFAYWGQGTLVTVSA VL: DIVLTQSPASLAVSLGQRASISCRASESVEYSGASLMQWYQHKPGQPPKLLIYAASNVESGVPVRFSGSGSGTDFSLNIHPVEEDDIAMYFCQQSRKVPSTFGGGTKLEIK | 4.75e+09
* mAb 3D11 (antibody, V domains shown, Mouse IgG2b hybridoma mAb raised against SpAKKAA; also called 3D11-HRP; HRP-3D11) VH: QSGPELMKPGASVKISCKASGYSFTSYYMHWVKQSHGKSLEWIGYIDPFNGGTSYNQKFKGKATLTVDKSSSTAYMHLSSLTSEDSAVYYCARYGYDGTFYAMDYWGQGTSVTVSS VL: RIVLTQSPAITAASLGQKVTITCSASSSVSYMHWYQQKSGTSPKPWIYEISKLASGVPARFSGSGSGTSYSLTISSMEAEDAAIYYCQQWSYPFTFGSGTKLEIK | 3.6e+09

Moving on to another binder below.
The recorded Ka for entry mAb 5A10 (antibody, V domains shown, Mouse IgG1 hybridoma mAb raised against SpAKKAA; also called 5A10-HRP; HRP-5A10) VH: EVKLVESGGGLVKPGGSLKLSCAASGFAFSNYDMSWVRQTPEKRLEWVATISSGGTYPYYPDSVKGRFTISRDNAKNTLYLQLSSLRSEDTALYYCARGGFLITTRDYYAMDYWGQGTSVTVSS VL: TIVLTQSPAIMSASPGEKVTMTCSASSSVSYMYWYQQKPGSSPRLLIYDTSNLASGVPVRFSGSGSGTSYSLTISRMEAEDAATYYCQQWSSYPPTFGGGTKLEIK equals 1.01e+10
